Ki, Protease (Human immunodeficiency virus 1), per-entry values.
Numbers only, in nM.

Take a look at these entries with their results.
1) COC(=O)N[C@H](C(=O)NN(CC(C)C)C[C@H](O)[C@H](Cc1ccccc1)NC(=O)[C@@H]1CN(c2ccccc2)C(=O)O1)C(C)(C)C ... 7
2) CC(=O)N[C@H](C(=O)N[C@@H](Cc1ccccc1)C[C@H](O)[C@H](Cc1ccccc1)NC(=O)[C@@H]1CN(c2ccc(F)c(F)c2)C(=O)O1)C(C)C ... 2.13
3) COC(=O)N[C@H](C(=O)N[C@@H](Cc1ccccc1)C[C@H](O)[C@H](Cc1ccccc1)NC(=O)[C@@H]1CN(c2ccccc2)C(=O)O1)C(C)(C)C ... 3.51
4) Cc1cccc(C)c1OCC(=O)N[C@@H](Cc1ccccc1)[C@@H](O)C[C@H](Cc1ccccc1)NC(=O)[C@@H]1CN(c2cccc(C(F)(F)F)c2)C(=O)O1 ... 21.6
5) Cc1cccc(C)c1OCC(=O)N[C@@H](Cc1ccccc1)C[C@H](O)[C@H](Cc1ccccc1)NC(=O)[C@@H]1CN(c2ccccc2)C(=O)O1 ... 8.05

Proceeding to the next compound to report its Ki.
Indicate its recorded Ki; the compound in question is CC(=O)c1ccc(N2C[C@@H](C(=O)N[C@@H](Cc3ccccc3)[C@@H](O)C[C@H](Cc3ccccc3)NC(=O)COc3c(C)cccc3C)OC2=O)cc1 39.9

====

Can you tell me Ki for the items I'm about to list?
# ASSAY_OVERVIEW: Inhibition of HIV1 Protease M3 variant by FRET based assay
# Set-up: species or system Human immunodeficiency virus 1
Answers are plain numbers, in nM.

Take a look at these entries with their results.
1. COC(=O)N[C@H](C(=O)N[C@@H](Cc1ccccc1)[C@@H](O)CN(Cc1ccc(-c2ccccn2)cc1)NC(=O)[C@@H](NC(=O)OC)C(C)(C)C)C(C)(C)C ... 0.49
2. CC(C)CN(C[C@@H](O)[C@H](Cc1ccccc1)NC(=O)O[C@H]1CCOC1)S(=O)(=O)c1ccc(N)cc1 ... 1.4
3. COC(=O)N[C@H](C(=O)N[C@@H](Cc1ccccc1)C[C@H](O)[C@H](Cc1ccccc1)NC(=O)[C@@H]1CN(c2ccccc2)C(=O)O1)C(C)(C)C ... 392
4. CC(C)[C@@H](C(=O)N[C@@H](Cc1ccccc1)C[C@H](O)[C@H](Cc1ccccc1)NC(=O)[C@@H]1CN(c2ccccc2)C(=O)O1)N1CCCNC1=O ... 185
5. CC(C)(C)NC(=O)[C@@H]1C[C@@H]2CCCC[C@@H]2CN1C[C@@H](O)[C@H](Cc1ccccc1)NC(=O)[C@H](CC(N)=O)NC(=O)c1ccc2ccccc2n1 ... 78.4

Indicate its recorded Ki; the molecule in question is COC(=O)N[C@H](C(=O)NN(CC(C)C)C[C@H](O)[C@H](Cc1ccccc1)NC(=O)[C@@H]1CN(c2ccccc2)C(=O)O1)C(C)(C)C 549
